Test system: HOP-92 NSCLC
Experiment description: NCI-60 one-dose screen, 48 h (100 = growth as untreated, 0 = no growth, -100 = all killed)
Stated conditions: 10 µM unless noted
About 83,000 compounds went through this panel and 20% of them were active in at least one assay; those are over-represented in the sample as a whole.
Reported endpoint: growth (%)
Numeric answer only, unit % assumed.

QUERY: Which growth is listed for "C=CCOc1ccc(N=NC(C#N)C#N)cc1" ?
RESULT: -13.1

QUERY: # iterate: CCCCCCC(C)c1ccccc1O (stereo not given) (tested in a mixture with another compound)
RESULT: 69.1

QUERY: # iterate: "O=C1C=CC(=O)N1C1c2ccccc2-c2ccccc21"
RESULT: 67.5

QUERY: # iterate: "CN(C)c1ccc(/C=N/N=C(\C#N)[S][Sn]([Cl])([c]2ccccc2)[c]2ccccc2)cc1"
RESULT: -15.6

QUERY: # iterate: "CCN1/C(=C\c2cc[n+](CC)c3ccccc23)C=Cc2ccccc21"
RESULT: -21.9

QUERY: # iterate: "NC(=O)/C=C/C(=O)c1c(Cl)cccc1Cl"
RESULT: -99.3

QUERY: # iterate: "O=[N+]([O-])c1ccc2c(N=Nc3ccc4ccccc4c3O)c(O)cc(S(=O)(=O)O)c2c1"
RESULT: 101

QUERY: # iterate: CC1OC(OC2C(OC3CCC4(C)C(CCC5(C)C4CC=C4C6CC(C)(C)CCC6(CO)C(O)CC45C)C3(C)C)OC(C(=O)O)C(OC3OC(COC4OC(CO)C(O)C(O)C4O)C(O)C(O)C3O)C2O)C(O)C(O)C1O (stereo not given)
RESULT: -38.7

QUERY: # iterate: "O=C1c2ccccc2C(=O)N1c1ccccc1"
RESULT: 104

QUERY: # iterate: O=C(/C=C\c1ccccc1)N1c2ccccc2CC1c1c[nH]c2ccccc12 (stereo not given)
RESULT: 47.5

----------
System: UACC-257 melanoma
Experiment description: NCI-60 one-dose screen, 48 h
Stated conditions: 10 µM unless noted
About 83,000 compounds went through this panel and 20% of them were active in at least one assay; those are over-represented in the sample as a whole. Activity calls are given as the source filed them. How the source made its calls: active means growth percent below 10; inactive means the rest. Where a SMILES comes first, the peptide text is derived from it. The star is where a group is joined. Trt = c1ccc(C(c2ccccc2)(c2ccccc2)*)cc1; Cbz = O=C(OCc1ccccc1)*
Just give me one of these, please: T for active, F for inactive

QUERY: Field: outcome | Entry: "CC(C)(C)c1ccc(O)c(C2CCCCC2)c1"
RESULT: F

QUERY: # iterate: "O=C(Nc1c(Cl)cccc1Cl)Oc1cccc2cccnc12"
RESULT: T

QUERY: # iterate: "CCOC(=O)/C=C/c1ccc([N+](=O)[O-])o1"
RESULT: F

QUERY: # iterate: "CCOC(=O)c1c(C)[nH]c(CO)c1C"
RESULT: F

QUERY: # iterate: "COc1cc(/C=C(/C)C[N+](=O)[O-])ccc1O"
RESULT: F

QUERY: # iterate: "CC1(C)CC([P+](c2ccccc2)(c2ccccc2)c2ccccc2)=NN1"
RESULT: T

QUERY: # iterate: "O=C(Nc1ccc(F)cc1)ON=C1CCCCC1"
RESULT: F

QUERY: # iterate: COC(=O)[C@@]12OC[C@]34[C@H]([C@@H](O)[C@@H]1O)[C@@]1(C)[C@H](O)C(=O)C=C(C)[C@@H]1C[C@H]3OC(=O)C(OC(C)=O)[C@@H]24 (some centres not stated)
RESULT: T

QUERY: # iterate: CCC(CCCN(CC)CCc1ccccc1)OC(=O)c1cc(OC)c(OC)c(OC)c1 (configuration not stated)
RESULT: F

QUERY: # iterate: "CNC(=O)N/N=C/c1ccc([N+](=O)[O-])o1"
RESULT: F

QUERY: # iterate: "O=C1c2ccccc2C(=O)c2sc(Nc3ccc(Cl)cc3)nc21"
RESULT: T

QUERY: # iterate: COC(=O)C(CSC(c1ccccc1)(c1ccccc1)c1ccccc1)NC(=O)C(CC(N)=O)NC(=O)OCc1ccccc1 (stereo not drawn) (Cbz-Asn-Cys(Trt)-OMe; configuration not given here)
RESULT: F

QUERY: # iterate: "S=C(N/N=C/c1ccccn1)Nc1ccccn1"
RESULT: T

QUERY: # iterate: "Oc1c(Cl)c2ccccc2c2ccccc12"
RESULT: F

QUERY: # iterate: "N#CSCc1ccc(Cl)c(CSC#N)c1"
RESULT: F

QUERY: # iterate: "Oc1c(Br)c(Br)c(O)c(Br)c1Br"
RESULT: F

QUERY: # iterate: "Cc1ccnc2c1ccc1c(C)ccnc12"
RESULT: T

QUERY: # iterate: "CC(C)c1ccc2nc3ccc(C(=O)NCCN4CCN(c5ccccc5)CC4)cn3c(=O)c2c1"
RESULT: F

QUERY: # iterate: "CC(=Nc1ccc(N(C)C)cc1)c1ccccc1"
RESULT: F

QUERY: # iterate: "O=[N+]([O-])c1ccc2c(N=Nc3ccc4ccccc4c3O)c(O)cc(S(=O)(=O)O)c2c1"
RESULT: F

QUERY: # iterate: "O=C1N[C@H]2[C@H](CS[C@H]2CCCCC(=O)N(CCP(c2ccccc2)c2ccccc2)CCP(c2ccccc2)c2ccccc2)N1"
RESULT: F

QUERY: # iterate: "CCCCCCCCCCCCCCCCOP(=O)([O-])OCC[N+](C)(C)C"
RESULT: F

QUERY: # iterate: Cc1ccnc(NC(c2ccccc2)c2ccc3cccnc3c2O)c1 (configuration not stated)
RESULT: F

QUERY: # iterate: "Oc1c(Cl)cc(Cl)c2cccnc12"
RESULT: F

QUERY: # iterate: "CN(C)c1ccc(N=Nc2cccc3ccccc23)cc1"
RESULT: F

QUERY: # iterate: "CNc1ccc(N)cc1"
RESULT: F

QUERY: # iterate: "NC1=CC(=O)c2ccccc2C1=O"
RESULT: F

QUERY: # iterate: "C/C=C1\SC(=S)NC1=O"
RESULT: F

QUERY: # iterate: "O=C(Nc1cccc(Br)c1)Oc1ccc(Cl)c2cccnc12"
RESULT: T

QUERY: # iterate: "COC(=O)c1nc(=S)[nH]c(C(=O)OC)c1C(=O)c1ccccn1"
RESULT: F

QUERY: # iterate: "N#CSCc1ccc(CSC#N)c(Cl)c1"
RESULT: F

QUERY: # iterate: "O[C@H]1[C@H]2c3cc4c(cc3CN3CCC(=C[C@@H]1O)[C@H]23)OCO4"
RESULT: F

QUERY: # iterate: CC1OC2CC(=O)OC2C2=C1C(=O)c1c(O)cccc1C2=O (configuration not stated)
RESULT: T

QUERY: # iterate: "N#CSCC(=O)c1ccc(Cl)cc1"
RESULT: F

QUERY: # iterate: "OC(CNc1ccnc2cc(Cl)ccc12)CNc1ccnc2cc(Cl)ccc12"
RESULT: F

QUERY: # iterate: "CC(C)(C)CC(C)(C)c1ccc(OCCSC(=N)N)cc1"
RESULT: F

QUERY: # iterate: "N#Cc1ccc([N+](=O)[O-])o1"
RESULT: F

QUERY: # iterate: "Cn1c2c(c3ccccc31)CCN1C[C@@H]3CCCC[C@H]3C[C@@H]21"
RESULT: F

QUERY: # iterate: O=C(/C=C\c1ccccc1)N1c2ccccc2CC1c1c[nH]c2ccccc12 (configuration not stated)
RESULT: F

QUERY: # iterate: "CCC(=O)Sc1ccccc1C(=O)Nc1ccc(Cl)cc1"
RESULT: F

QUERY: # iterate: "Oc1ccc(/C=N/NC(=S)Nc2ccccc2)nc1"
RESULT: T

QUERY: # iterate: "COc1ccc2nc3cc(Cl)ccc3c(NCCNc3c4ccc(Cl)cc4nc4ccc(OC)cc34)c2c1"
RESULT: T

QUERY: # iterate: "Cc1ccc2c(ccc3c[n+]4c5ccccc5ccc4n32)c1"
RESULT: T

QUERY: # iterate: "CCCCCCCCCCCCCCCCN(CC)CC"
RESULT: T

QUERY: # iterate: "CN(C)c1ccc(/C=N/N=C(\C#N)[S][Sn]([Cl])([c]2ccccc2)[c]2ccccc2)cc1"
RESULT: F

QUERY: # iterate: CN(Cc1cnc2nc(N)nc(N)c2n1)c1ccc(C(=O)NC(CCC(=O)O)C(=O)O)cc1 (configuration not stated)
RESULT: F

QUERY: # iterate: CN1c2ccccc2C(C)(C)C12C=Cc1cc(O)ccc1O2 (configuration not stated)
RESULT: F
